# Tested on: MCF7
# PROCEDURE TEXT: Cytotoxicity against human MCF7 cells assessed as reduction in cell viability incubated for 72 hrs by MTT assay
# Type: functional, cell-based
# CONDITION INFO: MCF7, 72 h
QUANTITY NAME: IC50 (nM)

- MOLECULE: "CC1(C)OC2=C(CC1CO)C(=O)C(=O)c1ccccc12 (stereo unspecified)"
  QUANTITY NAME: "IC50"
  RECORDED VALUE: 5510
- MOLECULE: "CC(=O)OCC1CC2=C(OC1(C)C)c1ccccc1C(=O)C2=O (stereo unspecified)"
  QUANTITY NAME: "IC50"
  RECORDED VALUE: 2730
- MOLECULE: "O=C1C(=O)c2ccccc2C2=C1CC(C[Se]c1cccs1)O2 (stereo unspecified)"
  QUANTITY NAME: "IC50"
  RECORDED VALUE: 1060
- MOLECULE: "CC1(C)OC2=C(CC1[Se]c1ccc(F)cc1)C(=O)C(=O)c1ccccc12 (stereo unspecified)"
  QUANTITY NAME: "IC50"
  RECORDED VALUE: 950
- MOLECULE: "CC1(C)OC2=C(C(=O)C(=O)c3ccccc32)C1n1cc(-c2ccc(Nc3ccccn3)c3nsnc23)nn1 (stereo unspecified)"
  QUANTITY NAME: "IC50"
  RECORDED VALUE: 480
- MOLECULE: "CC1(C)OC2=C(C(=O)C(=O)c3ccccc32)C1n1cc(C[Se]c2ccccc2)nn1 (stereo unspecified)"
  QUANTITY NAME: "IC50"
  RECORDED VALUE: 1060

====

# PROCEDURE TEXT: Oral bioavailability in human at 40 mg/kg
# Type: ADME, organism-based
# CONDITION INFO: in vivo
QUANTITY NAME: bioavailability

- SMILES RECORD: "CC1(C)CCC2=C(O1)c1ccccc1C(=O)C2=O"
  RECORDED VALUE: "15.5%"

====

# Tested on: B16-F10
# PROCEDURE TEXT: Cytotoxicity against mouse B16-F10 cells assessed as reduction in cell viability incubated for 72 hrs by MTT assay
# Assay type: functional, cell-based
# CONDITION INFO: B16-F10, 72 h
pIC50: −log10 of the molar value.
QUANTITY NAME: pIC50

- COMPOUND: "CC1(C)OC2=C(C(=O)C(=O)c3ccccc32)C1n1cc(C[Se]c2ccccc2)nn1 (stereo not drawn)"
  RECORDED VALUE: 5.97
- COMPOUND: "CC1(C)OC2=C(CC1[Se]c1ccc(F)cc1)C(=O)C(=O)c1ccccc12 (stereo not drawn)"
  RECORDED VALUE: 6.02
- COMPOUND: "O=C1C(=O)c2ccccc2C2=C1CC(C[Se]c1cccs1)O2 (stereo not drawn)"
  RECORDED VALUE: 5.97

====

# PROCEDURE TEXT: Cytotoxicity against monkey LLC-MK2 cells assessed as reduction in cell viability incubated for 96 hrs by trypan blue assay
# Format: toxicity, cell-based, Macaca mulatta
# CONDITION INFO: rhesus monkey, read-out: LC50
Item-by-item account of CC50 at 96 h

- COMPOUND: "CCCCCCCCCCC1CC2=C(O1)c1ccccc1C(=O)C2=O (stereo not drawn)"
  CC50 at 96 h: "1700 µM"
- COMPOUND: "O=C(Cn1ccnc1[N+](=O)[O-])NCc1ccccc1 [BENZNIDAZOLE]"
  CC50 at 96 h: "324 µM"
- COMPOUND: "CCCCCCCCC1CC2=C(O1)c1ccccc1C(=O)C2=O (stereo not drawn)"
  CC50 at 96 h: "2200 µM"
